assayed-target: Phosphatidylinositol 4,5-bisphosphate 3-kinase catalytic subunit alpha isoform (Homo sapiens, UniProt P42336)
Sequence (P42336 whole entry, canonical isoform): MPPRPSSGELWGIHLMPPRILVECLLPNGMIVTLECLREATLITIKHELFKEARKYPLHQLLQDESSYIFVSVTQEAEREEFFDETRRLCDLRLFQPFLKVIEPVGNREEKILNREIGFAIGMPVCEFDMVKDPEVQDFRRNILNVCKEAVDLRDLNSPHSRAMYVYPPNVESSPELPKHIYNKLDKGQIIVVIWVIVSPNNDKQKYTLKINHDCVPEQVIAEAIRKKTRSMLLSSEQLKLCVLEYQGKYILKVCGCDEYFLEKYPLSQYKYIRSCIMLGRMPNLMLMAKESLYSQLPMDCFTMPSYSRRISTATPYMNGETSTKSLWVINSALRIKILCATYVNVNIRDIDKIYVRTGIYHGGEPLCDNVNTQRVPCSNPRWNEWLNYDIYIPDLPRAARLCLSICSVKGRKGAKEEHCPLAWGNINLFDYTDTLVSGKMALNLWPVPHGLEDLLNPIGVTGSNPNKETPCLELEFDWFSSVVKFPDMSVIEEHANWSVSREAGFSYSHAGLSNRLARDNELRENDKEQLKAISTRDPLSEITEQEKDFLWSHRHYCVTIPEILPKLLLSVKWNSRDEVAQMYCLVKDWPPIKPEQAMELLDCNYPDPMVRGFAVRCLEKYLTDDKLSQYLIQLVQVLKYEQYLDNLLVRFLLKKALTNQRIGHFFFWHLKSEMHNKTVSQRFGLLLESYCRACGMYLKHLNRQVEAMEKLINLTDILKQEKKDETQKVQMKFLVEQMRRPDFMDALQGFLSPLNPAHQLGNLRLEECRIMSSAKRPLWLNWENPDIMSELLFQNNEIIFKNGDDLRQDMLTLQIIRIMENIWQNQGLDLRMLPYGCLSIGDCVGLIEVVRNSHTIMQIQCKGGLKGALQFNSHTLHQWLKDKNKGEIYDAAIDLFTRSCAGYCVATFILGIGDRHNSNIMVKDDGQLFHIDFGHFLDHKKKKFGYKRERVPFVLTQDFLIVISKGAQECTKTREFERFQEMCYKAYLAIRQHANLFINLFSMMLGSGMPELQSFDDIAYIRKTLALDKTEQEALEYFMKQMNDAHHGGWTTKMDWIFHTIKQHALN
assay-explanation: Inhibition of PI3Kalpha by continuous read time resolved fluorescence resonance energy transfer displacement assay
reported-endpoint: pIC50
Please report pIC50 as the negative decimal logarithm of the molar concentration, giving only the number.

>  <molecule>
Cc1c(Cn2c(C)nn3c(=O)cc(N4CCOC(C)C4)nc23)cccc1C(F)(F)F (racemic)

>  <value-measured>
6.40

$$$$
>  <molecule>
Cc1c(Cn2c(C)nn3c(=O)cc(N4CCOC(C)C4)nc23)cccc1C(F)(F)F (single isomer, unassigned; enantiomer 2)

>  <value-measured>
6.49

$$$$

Consider Cc1c(Cn2c(C)nn3c(=O)cc(N4CCOCC4)nc23)cccc1C(F)(F)F . Its measured pIC50 is 6.20

Consider CSc1nn2c(=O)cc(N3CCOCC3)nc2n1Cc1cccc(Cl)c1Cl . Its measured pIC50 is 5.80

Consider Cc1c(Cn2c(C)nn3c(=O)cc(N4CCOC(C)C4)nc23)cccc1C(F)(F)F (single isomer, unassigned; enantiomer 1) . Its measured pIC50 is 5.80

Consider O=c1cc(N2CCOCC2)nc2n(Cc3cccc(Cl)c3Cl)c(C3CC3)nn12 . Its measured pIC50 is 5.60

Consider Cc1nn2c(=O)cc(N3CCOC(C)C3)nc2n1Cc1cccc(Cl)c1Cl (stereo in doubt; 6) . Its measured pIC50 is 5.60

Consider Cc1nn2c(=O)cc(N3CCOC(C)C3)nc2n1Cc1cccc(Cl)c1Cl (single isomer, unassigned; enantiomer 2) . Its measured pIC50 is 6.00

---

assayed-target: Phosphatidylinositol 4,5-bisphosphate 3-kinase catalytic subunit gamma isoform (Homo sapiens, UniProt P48736)
Sequence (P48736 whole entry, canonical isoform): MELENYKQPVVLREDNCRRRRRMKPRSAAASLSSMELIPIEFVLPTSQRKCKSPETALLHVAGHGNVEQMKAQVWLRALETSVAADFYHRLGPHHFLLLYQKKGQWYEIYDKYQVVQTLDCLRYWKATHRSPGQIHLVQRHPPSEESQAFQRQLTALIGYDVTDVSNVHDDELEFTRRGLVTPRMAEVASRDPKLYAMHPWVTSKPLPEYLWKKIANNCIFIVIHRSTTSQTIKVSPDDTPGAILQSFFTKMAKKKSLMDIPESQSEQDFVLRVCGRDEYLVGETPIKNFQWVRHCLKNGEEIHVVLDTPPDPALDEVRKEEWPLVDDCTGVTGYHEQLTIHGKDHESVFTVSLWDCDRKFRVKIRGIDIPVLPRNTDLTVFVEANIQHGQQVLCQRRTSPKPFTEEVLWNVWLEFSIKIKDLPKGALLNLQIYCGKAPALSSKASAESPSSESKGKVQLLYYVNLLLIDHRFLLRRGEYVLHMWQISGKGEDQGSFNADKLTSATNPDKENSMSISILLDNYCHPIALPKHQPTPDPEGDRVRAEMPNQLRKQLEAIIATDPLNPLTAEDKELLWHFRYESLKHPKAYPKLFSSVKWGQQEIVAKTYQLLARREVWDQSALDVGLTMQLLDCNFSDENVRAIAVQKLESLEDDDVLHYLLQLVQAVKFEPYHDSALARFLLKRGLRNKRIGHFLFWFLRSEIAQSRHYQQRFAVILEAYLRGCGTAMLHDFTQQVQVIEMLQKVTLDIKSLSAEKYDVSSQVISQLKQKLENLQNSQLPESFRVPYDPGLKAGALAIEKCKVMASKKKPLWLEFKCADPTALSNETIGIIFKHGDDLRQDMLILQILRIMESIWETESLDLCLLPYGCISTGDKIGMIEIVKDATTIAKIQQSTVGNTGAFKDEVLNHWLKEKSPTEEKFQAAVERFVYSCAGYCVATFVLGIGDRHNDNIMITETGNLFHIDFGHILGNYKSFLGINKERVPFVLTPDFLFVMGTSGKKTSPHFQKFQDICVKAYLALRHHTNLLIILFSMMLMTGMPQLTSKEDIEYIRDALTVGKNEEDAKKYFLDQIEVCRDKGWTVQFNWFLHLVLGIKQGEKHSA
assay-explanation: Inhibition of PI3Kgamma by continuous read time resolved fluorescence resonance energy transfer displacement assay
Each item that follows carries a reported IC50.
Give a bare numeral; the unit nM is implied.

>  <molecule>
CSc1nn2c(=O)cc(N3CCOC(C)C3)nc2n1Cc1cccc(C(F)(F)F)c1C (stereo not given)

>  <unit-descriptor>
nM

>  <IC50>
200

$$$$
>  <molecule>
Cc1nn2c(=O)cc(N3CCOC(C)C3)nc2n1Cc1cccc(Cl)c1Cl (single isomer, unassigned; enantiomer 2)

>  <unit-descriptor>
nM

>  <IC50>
500

$$$$
>  <molecule>
CSc1nn2c(=O)cc(N3CCOCC3)nc2n1Cc1cccc(Cl)c1Cl

>  <unit-descriptor>
nM

>  <IC50>
500

$$$$
>  <molecule>
Cc1c(Cn2c(C)nn3c(=O)cc(N4CCOC(C)C4)nc23)cccc1C(F)(F)F (racemic)

>  <unit-descriptor>
nM

>  <IC50>
160

$$$$

Turning now to a further molecule:
Consider Cc1nn2c(=O)cc(N3CCOC(C)C3)nc2n1Cc1cccc(Cl)c1Cl (racemic) . Its measured IC50 is 250

---

Test system: MDA-MB-468
assay-explanation: Cytotoxicity against PTEN deficient human MDA-MB-468 cells after 6 days by alamar blue assay
Type: functional, cell-based
cond: Homo sapiens, MDA-MB-468, 144 h; read-out: EC50
Each item that follows carries a reported EC50.
Express your answer as a number followed by its unit.

The following molecules have reported results that may help.
>  <molecule>
CSc1nn2c(=O)cc(N3CCOCC3)nc2n1Cc1cccc(Cl)c1Cl

>  <EC50>
240 nM

$$$$
>  <molecule>
Cc1c(Cn2c(C)nn3c(=O)nc(N4CCOCC4)cc23)cccc1C(F)(F)F

>  <EC50>
210 nM

$$$$
>  <molecule>
Cc1nn2c(=O)cc(N3CCOCC3)nc2n1Cc1cccc(Cl)c1Cl

>  <EC50>
170 nM

$$$$
>  <molecule>
O=c1cc(N2CCOCC2)nc2n(Cc3cccc(Cl)c3Cl)c(C3CC3)nn12

>  <EC50>
260 nM

$$$$
>  <molecule>
Cc1c(Cn2c(C)nn3c(=O)cc(N4CCOCC4)nc23)cccc1C(F)(F)F

>  <EC50>
110 nM

$$$$

Consider Cc1c(Cn2c(C3CC3)nn3c(=O)cc(N4CCOCC4)nc23)cccc1C(F)(F)F . Its measured EC50 is 40 nM

Consider Cc1nn2c(=O)cc(N3CCOC(C)C3)nc2n1Cc1cccc(Cl)c1Cl (single isomer, unassigned; enantiomer 2) . Its measured EC50 is 110 nM
